Where these numbers come from: Sander's compilation of Henry's law constants (doi:10.1021/je700612b)

assay: Henry solubility constant Hcp at 298.15 K (mol/(m3 Pa)); details: reference: Ji et al. (2008)
measurementType: Henry solubility constant Hcp

INSERT INTO assay_data (molecule, observedresult) VALUES
  ('CCC(=O)c1ccccc1 [phenyl ethyl ketone]', 0.99),
  ('COc1ccccc1C=O [2-methoxybenzaldehyde]', 10),
  ('Cc1ccccc1C=O [2-methylbenzaldehyde]', 0.31),
  ('COc1ccccc1C(C)=O [2′-methoxyacetophenone]', 17),
  ('CC(=O)c1cccc(C)c1 [3′-methylacetophenone]', 1.5),
  ('CC(=O)c1ccccc1 [1-phenylethanone]', 1.2),
  ('CC(=O)c1ccc(C)cc1 [4''-methylacetophenone]', 1.8),
  ('CC(=O)c1ccccc1C [2′-methylacetophenone]', 0.76),
  ('COc1cccc(C=O)c1 [3-methoxybenzaldehyde]', 5.1),
  ('Cc1cccc(C=O)c1 [3-methylbenzaldehyde]', 0.35),
  ('COc1ccc(C=O)cc1 [4-methoxybenzaldehyde]', 24),
  ('CC(=O)c1ccccc1O [2′-hydroxyacetophenone]', 1),
  ('COc1cccc(C(C)=O)c1 [3′-methoxyacetophenone]', 19);
